Items are presented alongside their recorded pKi.
- assay_system: human CB2R (Homo sapiens, UniProt P34972)
- Construct: expressed in transfected cells
- Sequence (P34972 whole entry): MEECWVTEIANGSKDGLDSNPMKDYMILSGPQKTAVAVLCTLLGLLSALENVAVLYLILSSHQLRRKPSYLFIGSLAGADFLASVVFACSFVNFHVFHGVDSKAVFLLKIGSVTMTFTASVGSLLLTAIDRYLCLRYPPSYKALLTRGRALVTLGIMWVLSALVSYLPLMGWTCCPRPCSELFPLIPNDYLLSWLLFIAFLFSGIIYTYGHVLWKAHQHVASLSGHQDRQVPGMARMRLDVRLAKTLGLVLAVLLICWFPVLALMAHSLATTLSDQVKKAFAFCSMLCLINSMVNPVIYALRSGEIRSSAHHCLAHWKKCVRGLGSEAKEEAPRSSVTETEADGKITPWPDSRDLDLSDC
- test: Competition radioligand binding assay, [3H]-CP55940, human CB2R
Would you please state pKi, meaning minus log10 of the concentration in mol/L, as a bare number?

>>> obs_value("CC(C)C(NC(=O)c1cn(Cc2ccc(F)cc2)c2ccccc12)C(N)=O (centres unmarked) [AB-FUBICA]")
7.54

We now examine a further molecule.
Returns the measured pKi for the input molecule. Input: COC(=O)[C@@H](NC(=O)c1cn(Cc2ccc(F)cc2)c2ccccc12)C(C)C [AMB-FUBICA]
7.70
